assay: chemical genetic growth profiling, strain panel (AID 1159580);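 note: tested at 20 µM; growth read once vehicle control cultures reached saturation at 30 °C; 1 = growth at the plate median or of vehicle wells; lower values mean less growth of the strain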; conditions: S. cerevisiae deletion strains, growth OD, locus YHR030C, strain SLT2, active compounds read low
The whole screen tested about 5,500 compounds, of which about 2,000 (36%) were called active. Inconclusive results (about 18%) are left out. The list shows a part of the results.
Each item that follows carries a reported normalized growth.

Compound: COc1cccc2c1C(=O)c1c(O)c3c(c(O)c1C2=O)C[C@@](O)(C(=O)CO)C[C@@H]3O[C@H]1C[C@H](N)[C@@H](O)[C@H](C)O1
normalized growth: 1.01

Compound: N#Cc1c2ccccc2nc2ccccc12
normalized growth: 0.693

Compound: COc1ccc2[nH]cc(CCN)c2c1
normalized growth: 0.985

Compound: O=C1CC(CSc2ccc(Cl)cc2)=NN1
normalized growth: 0.752

Compound: COc1cccc2c1C(=O)c1c(O)c3c(c(O)c1C2=O)C[C@@](O)(C(=O)CO)C[C@@H]3OC1C[C@H](N)[C@H](O)[C@H](C)O1 (stereo not given in full)
normalized growth: 0.778

###

assay: chemical genetic growth profiling, strain panel (AID 1159580);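 note: tested at 20 µM; growth read once vehicle control cultures reached saturation at 30 °C; 1 = growth at the plate median or of vehicle wells; lower values mean less growth of the strain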; settings: S. cerevisiae deletion strains, growth OD, locus YCR088W, strain abp1
Among all 5,500 compounds or so, about 2,000 (36%) were called active. Another 18% or so got no clear call; they are omitted. Rule as the data show it: active = normalized growth mostly below about 0.91 (no sharp cut-off); inconclusive = no clear call, values can overlap the other calls; inactive = mostly above about 0.92. The list shows a part of the results.
Possible outcomes: 1 = active, 0 = inactive

Compound: Nc1c2c(nc3ccccc13)CCCC2O (stereo not drawn)
Class label: 0
//
Compound: C[C@H]1[C@H](C)CC[C@]2(CO)CC[C@]3(C)C(=CCC4[C@@]5(C)CC[C@H](O)C(C)(C)C5CC[C@]43C)[C@H]12 (stereo partly drawn)
Class label: 0
//
Compound: CC(C)(C#N)O[C@@H]1O[C@H](CO)[C@@H](O)[C@H](O)[C@H]1O
Class label: 0
//
Compound: FC(F)(F)c1ccccc1-n1ccnc1
Class label: 0
//
Compound: CC1(C)CC[C@@]2(C(=O)O)C(C1)C1=CCC3[C@@]4(C)CC[C@H](O)C(C)(C)C4CC[C@@]3(C)[C@]1(C)C[C@@H]2O (stereo partly drawn)
Class label: 0
//
Compound: Nc1ccc(S(=O)(=O)c2ccc(N)cc2)cc1
Class label: 0
//
Compound: CNCc1ccccc1
Class label: 0
//
Compound: CCC(C)C(=O)O[C@H]1[C@H](O)C2C(CN3CC(C)CCC3[C@@]2(C)O)C2C[C@]34O[C@]5(O)C(OC(=O)C(C)(O)CC)CC[C@@]3(C)C5C(OC(C)=O)[C@@H](OC(C)=O)C4[C@@]21O (stereo partly drawn)
Class label: 0
//
Compound: Nc1c2c(nc3ccccc13)CCCC2
Class label: 0
//
Compound: CC(CC(=O)C1OC1(C)C)C1C(=O)CC2(C)C3=CCC4C(C)(C)C(OC5OCC(O)C(O)C5O)CCC45CC35C(O)CC12C (stereo not drawn)
Class label: 0
//
Compound: NC(N)=N/N=C/c1c(Cl)cccc1Cl
Class label: 0
//
Compound: NC(Cc1c[nH]c2ccccc12)C(=O)O (stereo not drawn)
Class label: 0
//
Compound: CC(=O)NC(C(=O)O)C(C)(C)SN=O (stereo not drawn)
Class label: 0
//
Compound: Nc1c2ccccc2nc2ccccc12 (tested in a mixture with another compound)
Class label: 1
//
Compound: NNc1nncc2ccccc12
Class label: 0
//
Compound: Cc1cn([C@H]2C[C@H](N=[N+]=[N-])[C@@H](CO)O2)c(=O)[nH]c1=O
Class label: 0
//
Compound: C[C@@H]1CC[C@]2(C(=O)O)CC[C@]3(C)C(=CCC4[C@@]5(C)CC[C@H](O)C(C)(C)C5CC[C@]43C)C2[C@H]1C (stereo partly drawn)
Class label: 0
//
Compound: C/C=C(/C)C(=O)O[C@@H]1[C@H](OC(C)=O)[C@@]2(CO)C(CC1(C)C)C1=CCC3[C@@]4(C)CC[C@H](O[C@@H]5O[C@H](C(=O)O)[C@@H](O[C@@H]6O[C@H](CO)[C@@H](O)[C@H](O)[C@H]6O)[C@H](O)[C@H]5O[C@@H]5O[C@H](CO)[C@@H](O)[C@H](O)[C@H]5O)[C@](C)(CO)C4CC[C@@]3(C)[C@]1(C)C[C@H]2O (stereo partly drawn)
Class label: 0
